assay: TOR pathway RTG branch CIT2 reporter changes – S. cerevisiae, GFP fusion, multiplex flow cytometry, primary screen (AID 1870);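 further: barcoded CIT2-GFP strain pooled with four other GFP strains with rapamycin as positive control; median GFP fluorescence per well over plate mean of DMSO wells so 100% = DMSO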; settings: S. cerevisiae CIT2-GFP expression, 3 h, at 10 µM, stronger effect = higher value
assayMetric: percent response of DMSO control (%)

1) CCOc1ccc2nc(N/C(N)=N/S(C)(=O)=O)nc(C)c2c1 = 107
2) COc1ccc2c(c1)c(=O)oc1cc3occ(C(C)(C)C)c3cc12 = 103
3) CCOc1ccc(CC2CCC(=O)NC2=O)cc1 (stereo unspecified) = 104
4) COC(=O)C1=NN(C(=O)c2cccc(Br)c2)C(O)(c2ccc(Cl)cc2)C1 (stereo unspecified) = 97.8
5) CC(C)(Sc1cc(C(C)(C)C)c(O)c(C(C)(C)C)c1)Sc1cc(C(C)(C)C)c(O)c(C(C)(C)C)c1 = 107
6) Cc1ccc2c(ccc(=S)n2C)c1 = 115
7) COc1cccc(CC(=O)NCC2COc3ccccc3O2)c1OC (stereo unspecified) = 101
8) C=CCC1(Cl)C(=O)C(Cl)=C(N2CCOCC2)C1(OC)OC (stereo unspecified) = 108
9) COc1ccc(C2=NOC(COc3ccc4c(C)cc(=O)oc4c3)C2)c(OC)c1 (stereo unspecified) = 96
10) COc1ccc(C2c3c(n[nH]c3C)CC(C)(O)C2C(C)=O)cc1OC (stereo unspecified) = 97.9
11) CC(=O)C1=C(O)C(=O)N(Cc2cccnc2)C1c1ccc(C(C)C)cc1 (stereo unspecified) = 100

----------
experiment: AML differentiation inducers, ER-HoxA9 marrow cells – cell-based, GFP/MAC1 double positive, flow cytometry, validation set, primary screen (AID 588685); conditions: normalized: vehicle 0, fulvestrant 100;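 further: compound exposure lasts four days before antibody staining and flow analysis; 0% = DMSO wells and 100% = 5 µM fulvestrant positive control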
Activity calls are given as the source filed them.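 Rule for the calls: active = differentiation response of at least 50%, scaled between solvent and reference control, from cells with both markers; inactive = the rest.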
Outcome codes: True = active, False = inactive

1) NC[C@H]1O[C@H](O[C@H]2[C@H](O)[C@@H](O[C@H]3O[C@H](CO)[C@@H](O)[C@H](N)[C@H]3O)[C@H](N)C[C@@H]2N)[C@H](N)C[C@@H]1O = False
2) CC(=O)N[C@@H](CS)C(=O)O = False
3) CCCCOn1c(C)c(C(C)=O)c2c3no[n+]([O-])c3ccc21 = True
4) CC(C)(C)N(Cc1ccccc1)C(=O)c1ccc(Br)o1 = False
5) CCCCOc1ccc(CC(=O)NO)cc1 = False

----------
experiment: AML differentiation inducers, ER-HoxA9 marrow cells – cell-based, GFP/MAC1 double positive, flow cytometry, validation set, primary screen (AID 588685); settings: stronger effect = higher value, normalized: vehicle 0, fulvestrant 100;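 further: compound exposure lasts four days before antibody staining and flow analysis; 0% = DMSO wells and 100% = 5 µM fulvestrant positive control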
# maps each entry to its differentiation response
assayMetric: differentiation response (%)

1) C#C[C@]1(O)CC[C@H]2[C@@H]3CCc4cc(OC5CCCC5)ccc4[C@H]3CC[C@@]21C = 0
2) CC(C)OC(=O)C1C(=O)CC(C)(O)C(C(=O)OC(C)C)C1c1cccc(O)c1 (stereo not given) = -11.9
3) COc1ccc2oc(C)c(C(N)=O)c2c1 = -8.8
4) CC(/C=C1\SC(=O)N(CCCC(=O)O)C1=O)=C\c1ccccc1 = 12.8
5) COc1ccc(C(=O)CC2OC(=O)c3c2ccc(OC)c3OC)cc1 (stereo not given) = -2.69

----------
target: AP-2 complex subunit beta (Homo sapiens); test: beta-arrestin/AP2 interaction blockers – biochemical, validation set, GST-AP2 beads, flow cytometry, pilot screen (AID 504541); conditions: FITC arrestin peptide, at 10 µM, stronger effect = higher value, AP2 beta2 appendage fragment, R879A mutant;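 further: AP2 carries R879A mutation and is captured from E. coli lysate; bead-bound FITC arrestin peptide fluorescence measuring arrestin peptide binding to AP2; 0% = DMSO wells and 100% = excess unlabeled arrestin peptide control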
assayMetric: inhibition (%)

1) Brc1c(NC2=NCCN2)ccc2nccnc12 = 10.1
2) Cc1cc(C(=O)Nc2ccccc2C(=O)N2CCCCC2)ccc1[N+](=O)[O-] = 19.6
3) Cc1cc(NS(=O)(=O)c2ccc(N)cc2)no1 = -2.38
4) CC(OC(=O)c1cc(=O)[nH]c2ccccc12)C(=O)c1ccccc1 (centres undefined) = -9.56
5) O=CNC1CCCc2c1[nH]c1ccc(Cl)cc21 (centres undefined) = -3.47
6) CCOc1ccc(N2C(=O)CNC2=S)cc1 = 11.9
7) CC(C)Oc1cccc(C(=O)N2CCCC2)c1 = -4.57
8) CCN(CC)CC#CCOC(=O)C(O)(c1ccccc1)C1CCCCC1 (centres undefined) = -2.84
9) O=C(c1cccc2ccccc12)C1CCCN(C(=O)CCN2CCCO2)C1 (centres undefined) = -0.89
10) Cc1nc2cc3ccccc3cc2c(=O)[nH]1 = -19.1
11) COc1cc(C(=S)N(C)C)ccc1O = -1.41
12) Cc1cn([C@H]2C[C@H](N=[N+]=[N-])[C@@H](CO)O2)c(=O)[nH]c1=O = -5.32
13) COc1ccccc1/C=C/CN1CCN(Cc2ccc(F)cc2)C(CCO)C1 (centres undefined) = -20.3
14) COCCNC(=O)CSc1ccc(Cl)cc1 = 7.8
15) C[C@H]([C@@H](N)C(=O)N[C@@H](C(=O)O)[C@@H]1O[C@H](n2ccc(=O)[nH]c2=O)[C@@H](O)[C@H]1O)[C@@H](O)c1ccc(O)cn1 = 5.36
16) Cc1ccccc1C(=O)NCC(=O)O = -5.73
17) COc1cc(/C=C/C(=O)O)cc(S(=O)(=O)NCCCO)c1OC = -5.7
18) CN1C(=O)NC(c2ccc(O)cc2)C2=C1CN(c1cccc3ccccc13)C2=O (centres undefined) = 3.73
19) COc1ccccc1OCC(=O)O = -3.11
20) O=C(COc1cc(O)c2c(=O)c3ccccc3oc2c1)OCc1ccccc1 = -5.28
21) COc1cccc(NC(=O)C2CC(=O)OC23CCOC(C)(C)C3)c1 (centres undefined) = 0.76
22) O=C1c2ccccc2N2C(=O)c3ccccc3C2N1Cc1ccco1 (centres undefined) = -5.51
23) C=C(C)[C@@H]1CC=C(CN2CCC(N3CCC(C(=O)N4CCCC4)CC3)CC2)CC1 = -12.5
24) Cc1ccnc(NS(=O)(=O)c2ccc(N)cc2)n1 = -0.12

----------
# reported fluorescence, percent of control (lower = inhibition); entries follow
molecular target: Cell division control protein 42 homolog (Homo sapiens) (UniProt P60953); assay: inhibition of fluorescent GTP binding to wildtype Cdc42 – biochemical, multiplex bead flow cytometry, Bodipy-FL-GTP, dose response (AID 1334); conditions: bead-based flow cytometry, Bodipy-FL-GTP binding to GST-Cdc42; at 100 µM (top of the series) unless noted
Sequence (P60953 whole entry, looked up): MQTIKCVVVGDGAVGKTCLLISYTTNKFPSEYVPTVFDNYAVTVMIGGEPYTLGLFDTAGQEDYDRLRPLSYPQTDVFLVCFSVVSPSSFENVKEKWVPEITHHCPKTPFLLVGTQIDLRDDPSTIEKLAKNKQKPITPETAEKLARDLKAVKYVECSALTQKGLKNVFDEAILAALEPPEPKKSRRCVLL
Measured potencies and affinities stand elsewhere.
assayMetric: fluorescence, percent of control (lower = inhibition) (%)

1. COc1ccc(C(=O)O)c(OCc2ccccc2C)c1 = 62.5
2. CC(C)Oc1ccc(/C=N/NC(=O)c2ccc(N(Cc3ccccc3)S(C)(=O)=O)cc2)cc1 = 43.8
3. Cc1cc(OCCSc2nc3ccccc3n2CC(=O)O)ccc1Cl = 58.4
4. O=C(/C=C/c1ccccc1)NC(NC(=S)Nc1ccc(C(=O)O)cc1)C(Cl)(Cl)Cl (stereo unspecified) = 35.2
5. CC(C)(C)CC(=O)NC(=S)NCc1ccco1 = 41.6
6. COc1cccc(-n2nnnc2S(C)(=O)=O)c1 = 34

----------
molecular target: ATP-binding cassette sub-family B member 6 (Homo sapiens) (UniProt Q9NP58); experiment: blockers of ABCB6-driven porphyrin uptake – K562-ABCB6 cells, flow cytometry, validation set, pilot screen (AID 588550); conditions: K562-ABCB6 porphyrin accumulation, 1 h, at 10 µM, stronger effect = higher value;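 further: 0% = DMSO wells and 100% = benzethonium chloride 70 µM positive control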
Sequence (Q9NP58 whole entry, looked up): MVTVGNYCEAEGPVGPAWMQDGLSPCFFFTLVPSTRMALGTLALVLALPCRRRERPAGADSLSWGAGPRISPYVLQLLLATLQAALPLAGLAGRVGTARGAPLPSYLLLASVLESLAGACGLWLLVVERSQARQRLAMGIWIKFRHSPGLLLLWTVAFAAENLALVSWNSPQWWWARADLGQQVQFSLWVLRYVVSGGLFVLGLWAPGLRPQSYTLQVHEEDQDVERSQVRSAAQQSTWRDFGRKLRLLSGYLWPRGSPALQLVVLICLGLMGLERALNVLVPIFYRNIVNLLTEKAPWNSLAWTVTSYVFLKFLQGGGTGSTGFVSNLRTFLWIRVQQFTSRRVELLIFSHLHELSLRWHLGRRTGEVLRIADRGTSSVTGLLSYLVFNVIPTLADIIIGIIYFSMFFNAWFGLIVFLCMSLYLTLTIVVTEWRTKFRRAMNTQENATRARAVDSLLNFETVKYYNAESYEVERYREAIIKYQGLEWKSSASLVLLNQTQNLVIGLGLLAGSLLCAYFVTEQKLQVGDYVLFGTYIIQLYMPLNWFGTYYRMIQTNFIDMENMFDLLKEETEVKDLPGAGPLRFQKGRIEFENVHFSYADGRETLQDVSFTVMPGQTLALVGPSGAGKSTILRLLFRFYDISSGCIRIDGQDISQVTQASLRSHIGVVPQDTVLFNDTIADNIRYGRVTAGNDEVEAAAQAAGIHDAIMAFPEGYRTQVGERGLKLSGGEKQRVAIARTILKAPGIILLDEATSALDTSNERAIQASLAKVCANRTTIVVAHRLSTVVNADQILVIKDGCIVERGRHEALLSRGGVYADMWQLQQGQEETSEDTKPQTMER
inhibition values by entry
assayMetric: inhibition (%)

1) O=C(Oc1ccc2c3c(c(=O)oc2c1)CCCC3)c1ccco1 = 6
2) CCn1c(/C=C/c2ccccc2)nc2ccccc2c1=O = 7
3) CCOC(=O)C1NN=C(C(=O)c2ccccc2)C1c1ccc(Cl)cc1 (configuration not stated) = 9
4) Cc1ccc(C2CC(=O)C(C=NCCN3CCN(C(=S)Nc4ccccc4)CC3)=C(O)C2)cc1 (configuration not stated) = 3
5) NC(CO)C(=O)NNCc1ccc(O)c(O)c1O (configuration not stated) = 5
6) CC(C)CCC1(CCNC(C)c2cccs2)CCOC(C)(C)C1 (configuration not stated) = 2
7) COc1c(O)ccc2c1CN1CCc3cc4c(cc3C1C2)OCO4 (configuration not stated) = -25
8) C[C@H]([C@@H](N)C(=O)N[C@@H](C(=O)O)[C@@H]1O[C@H](n2ccc(=O)[nH]c2=O)[C@@H](O)[C@H]1O)[C@@H](O)c1ccc(O)cn1 = 9
9) COc1cc(NC(=O)COc2ccccc2)c(OC)cc1NC(C)=O = 0
10) COc1ccc(CNC(=O)c2c(O)c3cccc4c3n(c2=O)CCC4)cc1 = 5
11) CC1(C)CC(NCc2ccccc2)CCO1 (configuration not stated) = 4
12) O=c1c2ccccc2nc2n1CCCN2 = 2
13) CN(C)[C@@H]1C(=O)C(C(=O)NCN2CCCC2)=C(O)[C@@]2(O)C(=O)C3=C(O)c4c(O)cccc4[C@@](C)(O)C3CC12 (some centres not stated) = 8
14) COc1ccc(C(=O)Nc2ncc3c(n2)CC(C)CC3=O)cc1 (configuration not stated) = 15
15) COc1cccc2c(=O)c(C/C=C(/C)Cl)c(C)[nH]c12 = 3
16) CC(=O)c1c[nH]c2ccc(C)cc2c1=O = 1
17) O=[N+]([O-])c1ccc(O)c2ncccc12 = 1
18) CC(C)=CCCC1=CCC2C(=O)NNC(=O)C2C1 (configuration not stated) = 4
19) O=C1CN(O)C=C2N=c3ccccc3=C2N1c1ccc([N+](=O)[O-])cc1 = 19
20) Cc1nc2ccccn2c(=O)c1CCN1CCC(C(=O)c2ccc(F)cc2)CC1 = 2
21) Cc1ccc(S(=O)(=O)N[C@@H](C)C(=O)N2CCC(C(=O)N3CCC[C@H]3C(=O)O)CC2)cc1 = 8
22) COc1ccc(C(=O)O)cc1F = -3
